A collection of variants and their measured self-cleavage
B1: HDV Ribozyme (parent)
chain: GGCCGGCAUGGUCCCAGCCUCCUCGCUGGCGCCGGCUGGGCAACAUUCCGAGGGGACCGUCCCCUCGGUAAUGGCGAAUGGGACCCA

Variants of: B1
Experiment: self-cleavage, relative activity (ratio to wild type); higher = more cleavage; co-transcriptional

G74U C84G | 0.126
G39A C63U | 0.503
U60A G76U | 1.01
G5A G38A | 0.147

Input: Entry under review: A71U G74A . Reported self-cleavage?
Output: 0.519

Input: Again, but for U69C C84U
Output: 0.852

Input: Would you kindly repeat that for A45U G67C ?
Output: 0.719

Input: And for G6A A78C ?
Output: 0.0615

Input: Same thing, different variant: A83G C85U
Output: 0.9

Input: Do the same for C13G A70U please
Output: 0.123
